B1: MIA2 (parent)
chain: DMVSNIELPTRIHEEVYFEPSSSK

Variants of: B1
method-summary: protein stability index of a GFP-peptide fusion (GPS, HEK-293T) (PSI 1-6); higher = more stable;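 also: lentivirally expressed fusions sorted by FACS into six bins by GFP to DsRed ratio, PSI derived from sequencing read proportions per bin multiplied by bin number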
condition-context: c terminus: a fixed tail appended
property-name: protein stability index
Number, no unit, nothing else.

// known answers, use as guide
>  <variant-label>
T10K

>  <reported-result>
3.4

$$$$
>  <variant-label>
E15S

>  <reported-result>
3.54

$$$$
>  <variant-label>
E7H

>  <reported-result>
3.98

$$$$
>  <variant-label>
E14G

>  <reported-result>
3.28

$$$$
>  <variant-label>
E14A

>  <reported-result>
3.51

$$$$

// moving on: another record for protein stability index
Q: # return recorded protein stability index for entry E14D
Result: 3.59
